- protocol text: HUVEC growth inhibition – cell-based, human, primary screen (AID 575);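 also: 100% = median of untreated cell wells with 0.1% DMSO on each plate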
- measurement parameters: HUVEC proliferation, CellTiter-Glo luminescence, 72 h; at 10 µM; stronger effect = lower value
metric name: viability (%)
Express the result in % but write the number alone.

Sample answers from the record:
compound	output unit	viability
O=C(CSc1nnc(Cc2ccccc2)n1-c1cccc(Cl)c1)N1CCOCC1	%	94.2
COCc1[nH]nc2c1C(c1cc(OC)c(O)c(OC)c1)C(C#N)=C(N)O2 (stereo unspecified)	%	102
COc1ccccc1-c1cc(C(=O)Nc2cc(C)nn2-c2ccccc2)no1	%	61
Nc1nc2n(n1)C(c1cccc(Cl)c1)CC(c1ccc(F)cc1)N2 (stereo unspecified)	%	106
Clc1ccc2c(c1)C(N1CCNCC1)=Nc1ccccc1O2	%	46

Let's switch to this compound now.
# get_value(readout='viability', item= C#CCN(C)Cc1ccccc1 )
94.3
